- experiment-summary: Components of the Cytosolic LPS Sensing Pathway: Gene Identification via Genome-wide siRNA Screen
- assay-conditions: RAW264.7 macrophages, IL-1a HTRF, actives lie on both sides, screened at 100 nM (by protocol), cells primed 5 h with Pam3CSK4 first
The campaign covered roughly 53,000 sequences. About 3,700 (7%) were called active.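 How the source made its calls: active means gene knockdowns whose robust z-score for IL-1 alpha signal is at least 2 or at most -2, so actives lie on both sides; inactive means the rest.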 The full list was thinned out, with actives kept by preference.
Bench note: report the call from YES (active), NO (inactive)

Inquiry: Called result for GCUCAGUAAUCGCUGUCUATT against Olfr91
Reply text: NO

Inquiry: What classification did GUGGGAUUCCAGUAGAAAUTT against Olfr1116 end up with in this test?
Reply text: NO

Inquiry: What is the recorded call for this sequence in the test? GGAGCUGUAAAGGCUACAATT against Sulf2
Reply text: YES

Inquiry: Look up the recorded call for GGAUUGGAUAUUGAGAAGGTT against Rexo2 in this test.
Reply text: NO

Inquiry: Per the records of this test, what outcome belongs to GGACUCUGGACCUUAUGCUTT against Tmem202 ?
Reply text: NO

Inquiry: Dear colleague, could you share the recorded outcome for GCAACUGGCUGAACUCUCATT against Gsdmc2 when you have a moment?
Reply text: YES

From: PubChem BioAssay AID1508600
